Emax values, listed per item
# TARGET_OR_TEST_SYSTEM: human mAChR M1 (Homo sapiens, UniProt P11229)
# Construct: host or cells: CHO-K1 cells (ATCC), stably transfected using Lipofectamine2000
# Sequence (P11229 whole entry): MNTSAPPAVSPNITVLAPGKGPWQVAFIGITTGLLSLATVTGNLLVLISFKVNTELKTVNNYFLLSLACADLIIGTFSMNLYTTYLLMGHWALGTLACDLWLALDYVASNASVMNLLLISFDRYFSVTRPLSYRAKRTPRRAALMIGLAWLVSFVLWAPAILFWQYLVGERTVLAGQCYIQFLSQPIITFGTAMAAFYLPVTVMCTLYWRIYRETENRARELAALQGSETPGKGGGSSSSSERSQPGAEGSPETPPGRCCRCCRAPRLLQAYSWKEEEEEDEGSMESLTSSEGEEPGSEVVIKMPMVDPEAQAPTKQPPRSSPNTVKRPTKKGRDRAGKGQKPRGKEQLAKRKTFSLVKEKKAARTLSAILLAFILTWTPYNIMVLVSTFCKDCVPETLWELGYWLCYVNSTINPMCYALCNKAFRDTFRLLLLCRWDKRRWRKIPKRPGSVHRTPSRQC
# ASSAY_EXPLANATION: mAChR M1 cell-based functional assay (calcium mobilization), agonist activity upon compound addition
# EXPERIMENTAL_CONDITIONS: CHO-K1 cells expressing hM1; relative to the maximum for acetylcholine
OBSERVED_PROPERTY: Emax

{"columns": ["MOLECULE", "READING"],
 "data": [
  ["Cn1nccc1-c1ccc(Cn2cc(C(=O)N[C@H]3CCC[C@@H]3O)c3nccn3c2=O)c(F)c1 [Compound B33]", "< 5%"],
  ["Cc1cncc(-c2cc(F)c(Cn3cc(C(=O)N[C@H]4CCCC[C@@H]4O)c4ncccc4c3=O)c(F)c2)c1 [Compound A43]", "< 5%"],
  ["Cn1nccc1-c1cc(F)c(Cn2cc(C(=O)N[C@H]3CCOC[C@@H]3O)c3ncccc3c2=O)c(F)c1 [Compound A47]", "< 5%"],
  ["O=C(N[C@H]1CCC[C@@H]1O)c1cn(Cc2ccc(-n3cccn3)cc2)c(=O)c2ccoc12 [Compound D4]", "< 5%"],
  ["COc1cc(-c2cc(F)c(Cn3cc(C(=O)N[C@H]4CCOC[C@@H]4O)c4ncccc4c3=O)c(F)c2)ccc1Cl [Compound A39]", "< 5%"],
  ["CC(C)[C@@H](CO)NC(=O)c1cn(Cc2ccc(-c3cnn(C)c3)cc2F)c(=O)c2nccnc12 [Compound A82]", "< 5%"],
  ["Cn1cc(-c2ccc(Cn3cc(C(=O)N[C@H]4CCCCC[C@@H]4O)c4nccn4c3=O)c(F)c2)cn1 [Compound B15]", "64%"],
  ["O=C(N[C@H]1CCOC[C@@H]1O)c1cn(Cc2ccc(-n3cccn3)cc2)c(=O)c2nccnc12 [Compound A56]", "< 5%"],
  ["Cn1ccc(-c2ccc(Cn3cc(C(=O)N[C@H]4CCCC[C@@H]4O)c4nccnc4c3=O)c(F)c2)n1 [Compound A55]", "12%"],
  ["Cn1ccc(-c2ccc(Cn3cc(C(=O)NC4CC5(COC5)C4)c4ncccc4c3=O)c(F)c2)n1 [Compound A5]", "< 5%"],
  ["Cc1cn2c(=O)n(Cc3ccc(-n4cccn4)cc3)cc(C(=O)N[C@H]3CCOC[C@@H]3O)c2n1 [Compound B27]", "< 5%"],
  ["Cn1cc2c(-c3cc(F)c(Cn4cc(C(=O)N[C@H]5CCOC[C@@H]5O)c5ncncc5c4=O)c(F)c3)cccc2n1 [Compound A84]", "< 5%"],
  ["Cn1cc2c(-c3cc(F)c(Cn4cc(C(=O)N[C@H]5CCCC[C@@H]5O)c5ncncc5c4=O)c(F)c3)cccc2n1 [Compound A88]", "< 5%"],
  ["O=C(N[C@H]1CCCCC[C@@H]1O)c1cn(Cc2ccc(-n3cccn3)cc2)c(=O)c2nccnc12 [Compound A62]", "< 5%"],
  ["Cn1nccc1-c1cc(F)c(Cn2cc(C(=O)N[C@H]3CCOC[C@@H]3O)c3nccn3c2=O)c(F)c1 [Compound B36]", "< 5%"],
  ["Cn1cc(-c2ccc(Cn3cc(C(=O)N[C@H]4CCOC[C@@H]4O)c4ncccc4c3=O)cc2)cn1 [Compound A58]", "40%"]
]}
